# target: cGMP-specific 3',5'-cyclic phosphodiesterase (Bos taurus)
measurement-name: IC50 (µM)
One number for each entry, in µM.

Data request: State, in one line, measured IC50 of CN1C(=O)c2c(nc(-c3ccc(C4CCCCC4)cc3)n2Cc2ccccc2)N2CC3(CCCC3)N=C12
Data returned: 0.19

---

# target: cGMP-dependent 3',5'-cyclic phosphodiesterase (Homo sapiens, UniProt O00408)
# Sequence (O00408 whole entry): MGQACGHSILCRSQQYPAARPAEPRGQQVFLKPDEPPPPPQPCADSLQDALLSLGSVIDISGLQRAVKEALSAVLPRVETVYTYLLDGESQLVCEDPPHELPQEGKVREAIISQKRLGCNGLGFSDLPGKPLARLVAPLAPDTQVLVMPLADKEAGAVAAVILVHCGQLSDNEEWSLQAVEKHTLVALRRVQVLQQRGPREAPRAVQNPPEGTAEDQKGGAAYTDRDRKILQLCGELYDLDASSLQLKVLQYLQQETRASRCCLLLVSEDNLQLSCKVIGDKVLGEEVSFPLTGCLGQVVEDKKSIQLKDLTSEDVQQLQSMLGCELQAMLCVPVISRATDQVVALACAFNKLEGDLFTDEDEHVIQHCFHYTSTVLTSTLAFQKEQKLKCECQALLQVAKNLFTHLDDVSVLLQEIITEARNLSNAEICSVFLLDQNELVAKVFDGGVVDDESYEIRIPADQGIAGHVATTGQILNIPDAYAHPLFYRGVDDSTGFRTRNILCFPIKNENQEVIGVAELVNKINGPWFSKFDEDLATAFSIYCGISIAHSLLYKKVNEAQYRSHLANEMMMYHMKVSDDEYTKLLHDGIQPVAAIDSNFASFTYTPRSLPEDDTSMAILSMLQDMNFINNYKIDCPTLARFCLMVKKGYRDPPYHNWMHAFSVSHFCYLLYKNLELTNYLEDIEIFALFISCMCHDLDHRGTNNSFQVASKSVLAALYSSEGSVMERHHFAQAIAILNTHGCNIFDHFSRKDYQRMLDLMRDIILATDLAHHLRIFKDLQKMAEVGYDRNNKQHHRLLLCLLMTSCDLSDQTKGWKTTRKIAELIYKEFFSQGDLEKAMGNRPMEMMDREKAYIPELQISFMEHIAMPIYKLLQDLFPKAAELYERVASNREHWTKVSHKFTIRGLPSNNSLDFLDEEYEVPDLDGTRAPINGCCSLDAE
measurement-name: IC50 (µM)
Numbers only, in µM.

Data request: State, in one line, measured IC50 of CN1C(=O)c2c(nc(-c3ccc(C4CCCCC4)cc3)n2Cc2ccccc2)N2CC3(CCCC3)N=C12
Data returned: 17

---

# target: Phosphodiesterase 3B (Bos taurus)
# Sequence (E1BN64 whole entry): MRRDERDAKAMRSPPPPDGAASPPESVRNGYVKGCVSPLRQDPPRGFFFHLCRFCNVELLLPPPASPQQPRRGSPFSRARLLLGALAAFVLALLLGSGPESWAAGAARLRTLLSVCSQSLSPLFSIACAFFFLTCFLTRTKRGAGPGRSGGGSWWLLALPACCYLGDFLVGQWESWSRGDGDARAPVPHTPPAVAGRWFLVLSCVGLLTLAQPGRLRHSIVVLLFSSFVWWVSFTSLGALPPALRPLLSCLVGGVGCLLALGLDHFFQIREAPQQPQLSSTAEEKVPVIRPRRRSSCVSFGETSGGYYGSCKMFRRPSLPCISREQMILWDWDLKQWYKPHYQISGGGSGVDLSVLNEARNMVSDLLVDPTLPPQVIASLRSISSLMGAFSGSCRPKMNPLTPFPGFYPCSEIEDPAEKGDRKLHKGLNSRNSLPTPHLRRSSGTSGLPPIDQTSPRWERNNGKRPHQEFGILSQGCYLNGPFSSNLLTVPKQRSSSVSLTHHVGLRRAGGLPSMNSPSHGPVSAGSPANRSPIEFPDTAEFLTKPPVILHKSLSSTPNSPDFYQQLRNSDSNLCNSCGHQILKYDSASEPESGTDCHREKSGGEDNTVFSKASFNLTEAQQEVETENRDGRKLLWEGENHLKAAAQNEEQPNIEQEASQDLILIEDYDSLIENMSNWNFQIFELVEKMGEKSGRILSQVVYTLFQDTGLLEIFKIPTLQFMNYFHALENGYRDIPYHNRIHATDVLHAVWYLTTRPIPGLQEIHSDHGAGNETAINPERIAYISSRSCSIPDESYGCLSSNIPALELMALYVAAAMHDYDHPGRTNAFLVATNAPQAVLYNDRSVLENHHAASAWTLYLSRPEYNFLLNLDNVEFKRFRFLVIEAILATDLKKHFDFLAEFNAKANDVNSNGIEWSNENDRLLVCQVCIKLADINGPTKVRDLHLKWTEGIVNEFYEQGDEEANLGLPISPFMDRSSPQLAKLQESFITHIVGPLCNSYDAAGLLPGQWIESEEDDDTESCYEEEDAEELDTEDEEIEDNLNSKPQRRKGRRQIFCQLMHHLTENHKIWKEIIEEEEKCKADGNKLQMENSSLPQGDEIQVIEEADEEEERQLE
measurement-name: IC50

Data request: State, in one line, measured IC50 of CN1C(=O)c2c(nc(-c3ccc(C4CCCCC4)cc3)n2Cc2ccccc2)N2CC3(CCCC3)N=C12
Data returned: > 100 µM
